biological target: T1, β2-Microglobulin (Homo sapiens, UniProt P61769); assay: SPR; Biacore T200; β2M immobilised on a CM5 chip to 150 RU; VHH samples after the modification procedure (NHS-Fluo:VHH 0, 1, 5 or 20; 2 h at 4 °C, ultrafiltration) in 2-fold serial dilution, 30 μL/min, HBS-EP+, 25 °C; 1:1 model with drift and RI2; conditions: both partners purified
T1 construct: human β2-microglobulin; Amine-coupled to a CM5 chip (150 RU); also called antigen β2M; source: expressed and purified as previously described [27]
T1 sequence (P61769 21-119): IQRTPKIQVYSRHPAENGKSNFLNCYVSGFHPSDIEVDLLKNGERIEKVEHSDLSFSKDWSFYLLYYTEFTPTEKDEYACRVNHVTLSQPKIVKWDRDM
Consider the following binders; for each one, report its koff.

So what's the measured koff for this one? NB-2 (VHH, VHH domain of NB-2; flexible (G4S)4 linker between the VHH domain and the His6 tag, written out from '(G4S)4'; VHH-(G4S)4-His6; Template of the homology model: PDB 5IML (GMQE 0.92). 'Origin' = no treatment; '0' = negative control; also called NB-2-Origin; NB-2-0; source: E. coli SHuffle T7, purified (HisTrap HP)) VHH: QVQLVESGGGLVQHGGSLRLSCAASGSAFSTYSMTWHRQAPGKGREWVAGVDRSNSDTNYADSVKGRFTIYRDNAQNTVYLRMNSLKPEDTAVYYCSAERLDGSVRREYWGQGTQVTVSS
0.00257 s⁻¹

Tell me the measured koff of NB-3 modified with 5 times of NHS-Fluo (VHH, as the VHH domain of Dm10; flexible (G4S)4 linker between the VHH domain and the His6 tag, written out from '(G4S)4'; A mixture of isomers with different numbers and places of fluorescein; also called NB-3-5; source: E. coli SHuffle T7, purified (HisTrap HP), modified with NHS-Fluo, ultrafiltration) VHH: QVQLVESGGGLVQPGGSLRLSCAASGFSLDYYAIGWFRQAPGKEREGVSCISSSDDSTYYAGSVKGRFKISRDNAKSTVYLQMNSLKPEDSAVYYCAALHSGNYYYTPSYICDAEMDYWGKGTLVTVSS , please.
0.00369 s⁻¹

Looking for the measured koff of NB-2 modified with 20 times of NHS-Fluo (VHH, as the VHH domain of Dm6; flexible (G4S)4 linker between the VHH domain and the His6 tag, written out from '(G4S)4'; A mixture of isomers with different numbers and places of fluorescein; also called NB-2-20; source: E. coli SHuffle T7, purified (HisTrap HP), modified with NHS-Fluo, ultrafiltration) VHH: QVQLVESGGGLVQHGGSLRLSCAASGSAFSTYSMTWHRQAPGKGREWVAGVDRSNSDTNYADSVKGRFTIYRDNAQNTVYLRMNSLKPEDTAVYYCSAERLDGSVRREYWGQGTQVTVSS , can you help?
0.00328 s⁻¹

Quick check: koff of NB-3 modified with 1 time of NHS-Fluo (VHH, as the VHH domain of Dm10; flexible (G4S)4 linker between the VHH domain and the His6 tag, written out from '(G4S)4'; A mixture of isomers with different numbers and places of fluorescein; also called NB-3-1; source: E. coli SHuffle T7, purified (HisTrap HP), modified with NHS-Fluo, ultrafiltration) VHH: QVQLVESGGGLVQPGGSLRLSCAASGFSLDYYAIGWFRQAPGKEREGVSCISSSDDSTYYAGSVKGRFKISRDNAKSTVYLQMNSLKPEDSAVYYCAALHSGNYYYTPSYICDAEMDYWGKGTLVTVSS ?
0.00297 s⁻¹
